Measured IC50, listed per entry.
- targetUnderTest: SHP2 (Homo sapiens)
- Sequence (Q06124 whole entry): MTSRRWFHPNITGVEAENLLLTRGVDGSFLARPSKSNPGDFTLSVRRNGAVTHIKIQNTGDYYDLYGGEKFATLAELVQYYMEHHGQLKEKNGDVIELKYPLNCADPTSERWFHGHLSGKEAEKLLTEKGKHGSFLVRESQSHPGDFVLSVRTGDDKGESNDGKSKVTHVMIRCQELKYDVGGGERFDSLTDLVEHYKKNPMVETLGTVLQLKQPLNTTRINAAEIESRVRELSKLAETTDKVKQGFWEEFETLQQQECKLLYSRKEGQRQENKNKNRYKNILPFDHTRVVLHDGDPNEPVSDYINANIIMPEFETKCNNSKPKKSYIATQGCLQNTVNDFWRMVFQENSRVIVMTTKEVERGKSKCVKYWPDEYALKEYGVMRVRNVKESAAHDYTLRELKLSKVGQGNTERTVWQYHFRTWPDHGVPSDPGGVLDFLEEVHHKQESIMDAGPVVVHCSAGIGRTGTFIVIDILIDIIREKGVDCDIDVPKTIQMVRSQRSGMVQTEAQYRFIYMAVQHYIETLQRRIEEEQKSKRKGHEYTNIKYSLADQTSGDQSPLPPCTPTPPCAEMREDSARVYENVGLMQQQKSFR
- protocol: SHP2 allosteric inhibitor enzyme activity assay (DiFMUP fluorescence)
- Type: biochemical
- appliedConditions: class symbols

The following molecules have reported results that may help.
>  <molecule>
N[C@@H]1c2ccccc2CC12CCN(c1nc3[nH]nc(C4=CCOc5ccc(Cl)cc54)c3c(=O)[nH]1)CC2

>  <IC50>
≤ 20 nM

$$$$
>  <molecule>
N[C@@H]1c2ccccc2CC12CCN(c1nc3[nH]nc([C@H]4C[C@H]4c4ccccc4)c3c3nncn13)CC2

>  <IC50>
20 to 60 nM

$$$$
>  <molecule>
C[C@@H]1OCC2(CCN(c3ncc(C4(c5ccccc5)CC4)c(=O)n3C)CC2)[C@@H]1N

>  <IC50>
> 60 nM

$$$$
>  <molecule>
N[C@@H]1c2ccccc2CC12CCN(c1nc3[nH]nc(C4(c5ccccn5)CCC4)c3c(=O)[nH]1)CC2

>  <IC50>
≤ 20 nM

$$$$
>  <molecule>
C[C@@H]1OCC2(CCN(c3nc4[nH]nc(C5(c6ncco6)CC5)c4c(=O)[nH]3)CC2)[C@@H]1N

>  <IC50>
20 to 60 nM

$$$$

Problem: Report value: IC50, system: SHP2 (Homo sapiens), molecule: N[C@@H]1c2ccccc2CC12CCN(c1nc3[nH]nc(C4(c5ccccc5C(F)(F)F)CC4)c3c(=O)[nH]1)CC2
Solution: ≤ 20 nM

Problem: Report value: IC50, system: SHP2 (Homo sapiens), molecule: N#Cc1ccc2c(c1)[C@@H](N)C1(CCN(c3nc4[nH]nc(C5(c6ccccc6)CC5)c4c(=O)[nH]3)CC1)C2
Solution: ≤ 20 nM

Problem: Report value: IC50, system: SHP2 (Homo sapiens), molecule: N[C@@H]1c2ccccc2CC12CCN(c1nc3[nH]nc(C4(c5ccccc5)CCOCC4)c3c(=O)[nH]1)CC2
Solution: 20 to 60 nM

Problem: Report value: IC50, system: SHP2 (Homo sapiens), molecule: N[C@@H]1COCC12CCN(c1nc3[nH]nc(C4(c5nc6ccccc6o5)CC4)c3c(=O)[nH]1)CC2
Solution: 20 to 60 nM

Problem: Report value: IC50, system: SHP2 (Homo sapiens), molecule: CN1CC=C(c2n[nH]c3nc(N4CCC5(CC4)Cc4ccccc4[C@H]5N)[nH]c(=O)c23)c2ccccc21 [Compound 178, reference compound]
Solution: ≤ 20 nM

Problem: Report value: IC50, system: SHP2 (Homo sapiens), molecule: N[C@@H]1c2ccccc2CC12CCN(c1nc3[nH]nc(C4=CCCc5nc(C(F)(F)F)cc(C(F)(F)F)c54)c3c(=O)[nH]1)CC2
Solution: 20 to 60 nM

Problem: Report value: IC50, system: SHP2 (Homo sapiens), molecule: N[C@@H]1c2ccccc2CC12CCN(c1nc3[nH]nc(C4(c5csnn5)CC4)c3c(=O)[nH]1)CC2
Solution: ≤ 20 nM

Problem: Report value: IC50, system: SHP2 (Homo sapiens), molecule: Nc1ccccc1C1(c2n[nH]c3nc(N4CCC5(CC4)Cc4ccccc4[C@H]5N)[nH]c(=O)c23)CC1
Solution: ≤ 20 nM

Problem: Report value: IC50, system: SHP2 (Homo sapiens), molecule: CCOC(=O)Nc1cccc(C2(c3n[nH]c4nc(N5CCC6(CC5)Cc5ccccc5[C@H]6N)[nH]c(=O)c34)CC2)c1
Solution: ≤ 20 nM

meta.source: patent US20230192705A1
